- STUDY_SYSTEM: UniProt:O00187
- Sequence (O00187 445-686): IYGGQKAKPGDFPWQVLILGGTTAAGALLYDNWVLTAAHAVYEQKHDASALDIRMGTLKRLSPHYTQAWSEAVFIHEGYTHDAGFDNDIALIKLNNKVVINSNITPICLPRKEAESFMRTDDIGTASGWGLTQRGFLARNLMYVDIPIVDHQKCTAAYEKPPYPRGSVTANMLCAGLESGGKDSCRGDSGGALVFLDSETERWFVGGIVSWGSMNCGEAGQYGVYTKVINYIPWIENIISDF
- Sequence (O00187 364-432 partner): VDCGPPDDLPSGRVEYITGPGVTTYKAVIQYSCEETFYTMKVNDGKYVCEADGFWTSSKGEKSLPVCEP
- ASSAY_METHOD_TEXT: MASP-2 co-crystallization, X-ray crystallography and structure analysis (H-bonds, van der Waals contacts)
- Parameters: unit not given beside the values
- REPORTED_CONDITIONS: Table A5-1 pharmacophore: distance between elements, S2/S1 region
Below is a list of entries, each paired with its recorded d(CA1,C5) value.

{"COMPOUND": "CC(NC(=O)C1CC(Cc2ccccc2)CN1)C(=O)NCc1cnc2c(c1)c(Cl)cn2C.Cl.Cl (centres unmarked) [1450_B]", "d(CA1,C5)": 3.41}
{"COMPOUND": "C[C@H](NC(=O)[C@H]1C[C@@H](c2ccccc2)CCN1)C(=O)NCc1cc(Cl)ccc1O.Cl [1078_4]", "d(CA1,C5)": 3.13}
{"COMPOUND": "C[C@H](NC(=O)[C@H]1C[C@@H](c2ccccc2)CCN1)C(=O)NCc1cc(Cl)ccc1O.Cl [1078_7]", "d(CA1,C5)": 3.14}
{"COMPOUND": "C[C@H](NC(=O)[C@H]1C[C@H](Cc2ccccc2)CN1)C(=O)NCc1cnc2[nH]cc(Cl)c2c1", "d(CA1,C5)": 3.47}
{"COMPOUND": "C[C@H](NC(=O)[C@H]1C[C@@H](c2ccccc2)CCN1)C(=O)NCc1cc(Cl)ccc1O.Cl [1078_2]", "d(CA1,C5)": 3.12}
{"COMPOUND": "C[C@H](NC(=O)[C@H]1C[C@@H](c2ccccc2)CCN1)C(=O)NCc1cc(Cl)ccc1O.Cl [1078_5]", "d(CA1,C5)": 3.12}
{"COMPOUND": "C[C@H](NC(=O)[C@H]1C[C@@H](c2ccccc2)CCN1)C(=O)NCc1cnc2[nH]cc(Cl)c2c1", "d(CA1,C5)": 3.47}
{"COMPOUND": "Cc1cc(Cl)cc(CNC(=O)[C@H](C)NC(=O)[C@H]2C[C@H](Cc3ccccc3)CN2)c1O", "d(CA1,C5)": 3.13}
{"COMPOUND": "C[C@H](NC(=O)[C@H]1C[C@@H](c2ccccc2)CCN1)C(=O)NCc1cc(Cl)ccc1O.Cl [1078_11]", "d(CA1,C5)": 3.12}
{"COMPOUND": "C[C@H](NC(=O)[C@H]1C[C@@H](c2ccccc2)CCN1)C(=O)NCc1cc(Cl)ccc1O.Cl [1078_15]", "d(CA1,C5)": 3.13}
{"COMPOUND": "C[C@H](NC(=O)[C@H]1C[C@@H](c2ccccc2)CCN1)C(=O)NCc1cc(Cl)ccc1O.Cl [1078_12]", "d(CA1,C5)": 3.12}
{"COMPOUND": "C[C@H](NC(=O)[C@H]1C[C@@H](c2ccccc2)CCN1)C(=O)NCc1cc(Cl)ccc1O.Cl [1078_14]", "d(CA1,C5)": 3.13}
{"COMPOUND": "C[C@H](NC(=O)[C@H]1C[C@@H](c2ccccc2)CCN1)C(=O)NCc1cc(Cl)ccc1O.Cl [1078_8]", "d(CA1,C5)": 3.10}
{"COMPOUND": "C[C@H](NC(=O)[C@H]1C[C@@H](c2ccccc2)CCN1)C(=O)NCc1cc(Cl)ccc1O.Cl [1078_9]", "d(CA1,C5)": 3.11}
{"COMPOUND": "C[C@H](NC(=O)[C@H]1C[C@@H](c2ccccc2)CCN1)C(=O)NCc1cc(Cl)ccc1O.Cl [1078_6]", "d(CA1,C5)": 3.11}
{"COMPOUND": "C[C@H](NC(=O)[C@H]1C[C@@H](c2ccccc2)CCN1)C(=O)NCc1cc(Cl)ccc1O.Cl [1078_10]", "d(CA1,C5)": 3.12}
{"COMPOUND": "C[C@H](NC(=O)[C@H]1C[C@@H](c2ccccc2)CCN1)C(=O)NCc1cc(Cl)ccc1O.Cl [1078_13]", "d(CA1,C5)": 3.12}

The measured values listed here are drawn from patent US12195427B2.
